Reference for the values: ChEMBL document CHEMBL3826920

- System: NCI-H157
- PROCEDURE SUMMARY: Growth inhibition of human NCI-H157 cells at 100 uM after 48 hrs by SRB assay
- Format: functional
- CONDITION SUMMARY: NCI-H157, 48 h, read-out: GI
MEASUREMENT LABEL: inhibition of growth at 100 µM

Some solved entries appear below for comparison.
- STRUCTURE STRING: "O=C(NC(=S)Nc1cccc(Br)c1)c1cccc(Cl)c1"
  inhibition of growth at 100 µM: "32.4%"
- STRUCTURE STRING: "O=C(NC(=S)Nc1ccc([N+](=O)[O-])cc1[N+](=O)[O-])c1cccc(Cl)c1"
  inhibition of growth at 100 µM: "36.1%"
- STRUCTURE STRING: "O=C(NC(=S)Nc1c(Cl)cc(Cl)cc1Cl)c1cccc(Cl)c1"
  inhibition of growth at 100 µM: "60.9%"
- STRUCTURE STRING: "O=C(NC(=S)NCc1ccccc1Cl)c1cccc(Cl)c1"
  inhibition of growth at 100 µM: "27.6%"
- STRUCTURE STRING: "O=C(NC(=S)Nc1ccc(C(F)(F)F)cc1)c1cccc(Cl)c1"
  inhibition of growth at 100 µM: "44.6%"

Now consider a different compound.
Req: What does the data say about its inhibition of growth at 100 µM? Entry: O=C(NC(=S)Nc1cccc(C(F)(F)F)c1)c1cccc(Cl)c1
Resp: 48.9%
